The measurements presented in this section are drawn from patent US6458764B1.

# Test system: serum IGF-I
# ASSAY_NOTES: Comparative effects of GRF analogs on IGF-I levels in pigs (Example II, D-IGF-I, FIG. 1)
# Format: in vivo, pigs (Landrace x Yorkshire)
# STUDY_CONDITIONS: 20 μg/kg 2×/day S.C., days 1 to 5, n=8 pigs per group
QUANTITY_MEASURED: D-IGF-I: increase in IGF-I levels from day 1 (pretreatment) to day 6

SUBSTANCE: (Muconoyl)0 hGRF (1-29) NH2 (muconoyl-YADAIFTNSYRKVLGQLSARKLLQDIMSR-NH2; UniProt P01286 32-60, looked up, fragment) [muconoyl-hGRF(1-29)NH2]
RESULT: did not

SUBSTANCE: (Aminohexanoyl)0 hGRF (1-29) NH2 (aminohexanoyl-YADAIFTNSYRKVLGQLSARKLLQDIMSR-NH2; UniProt P01286 32-60, looked up, fragment) [aminohexanoyl-hGRF(1-29)NH2]
RESULT: did not
